- Test system: LOX IMVI melanoma
- TEST NAME: NCI tumour cell line growth inhibition, 48 h
MEASURED PARAMETER: TGI

| GIVEN SMILES | TESTED TARGET | RESULT |
| --- | --- | --- |
| COC[C@H]1Cn2cc(-c3nc(Nc4ccnn4C)ncc3C)nc2C(=O)N1Cc1ccc(F)c(F)c1 | LOX IMVI melanoma | > 100 µM |
| NC1(c2cc3ccccc3s2)CCCC1 | LOX IMVI melanoma | > 100 µM |
| Cn1c2ccc3cc2c(=S)c2cc(ccc21)OCCOCCOCCOCCOCCOCCO3 | LOX IMVI melanoma | > 10 µM |

----------
- Test system: SNB-75 CNS
- TEST NAME: NCI tumour cell line growth inhibition, 48 h; in the data active = GI50 below about 0.43 µM; inactive = the rest
Outcome codes: Yes (active), No (inactive)

| GIVEN SMILES | CATEGORY |
| --- | --- |
| Cc1nnc(NC(=O)c2nc(S(=O)(=O)Cc3ccc(F)cc3)ncc2Cl)s1 | No |
| CCCCCCCCCCCCCCCC[N+](C)(C)Cc1ccccc1 | No |
| CC(C)[C@@H]1C=C2CC[C@H]3[C@](C)(CN)CCC[C@]3(C)[C@H]2CC1 | No |
| CCCCCCCCCCn1cc[n+](C)c1 | No |
| CCC(=C/[C@H](C)C/C=C/C(C)=C/[C@@H](C)C(=O)[C@@H](C)[C@H](O)[C@@H](C)CC)/C=C/[C@H]1OC(=O)C=C[C@@H]1C | Yes |
| N#Cc1c[nH]n2c(N=Nc3ccc(Cl)cc3)c(O)nc12 | No |
| CN1CC[C@@H](NC(=O)Nc2ccc(C#N)cc2)C[C@@H]1c1nc2ccccc2[nH]1 | No |
| Nc1c(C(=O)Nc2cccc(C(F)(F)F)c2)sc2nc3c(cc12)CCCCC3 | No |

----------
- Test system: EKVX NSCLC
- TEST NAME: NCI tumour cell line growth inhibition, 48 h

| MOLECULE | TGI |
| --- | --- |
| [N-]=[N+]=NC(c1ccccc1)(c1ccccc1)c1ccccc1 | 27.8 µM |
| CC1=C(Cl)C=CP(=O)(Oc2ccccc2)C1 (configuration not stated) | > 100 µM |
| COc1ccc(N=NC(=Nc2ccccc2)c2ccc(N(CCC#N)CCC#N)cc2)cc1 | > 100 µM |
| CCCOc1cc2ccccc2cc1C(=O)Nc1nc(N)c2c(ccc3nccc32)[nH]1 | 2.25 µM |
| COc1ccc(C)cc1-c1cc(Sc2ccccc2)c(-c2cc(C)ccc2OC)o1 | > 31.6 µM |
| O=[N+]([O-])c1cc(C=NC23CC4CC(CC(C4)C2)C3)ccc1Cl | > 61.8 µM |
| CCN1C(=O)N(c2ccccc2)C2NC(=S)N(/N=C/C=C/c3ccccc3OC)C21 (configuration not stated) | > 100 µM |
| COc1ccc2nc(NC(=O)CSc3nnc4n3S(=O)(=O)c3ccccc3N4c3ccccc3)sc2c1 | > 100 µM |
| COc1nncc2[nH]c(-c3ccccc3)cc12 | > 100 µM |
| O=C(/C(=C/c1ccc([N+](=O)[O-])cc1)SCc1ccccc1)c1ccc(Cl)cc1 | 20.2 µM |
| Cc1cc(C)nc(NS(=O)(=O)c2ccc(NC(=O)c3ccc4nc5ccccc5c(Nc5ccc(S(N)(=O)=O)cc5)c4c3)cc2)n1 | > 100 µM |
| Cc1ccc(-c2csc(=Nc3ccccc3)n2NC(=O)c2ccncc2)cc1 | > 100 µM |
| CN1CC[C@@H](NC(=O)Nc2ccc(C#N)cc2)C[C@@H]1c1nc2ccccc2[nH]1 | > 100 µM |
| COc1ccc(-n2c(C)nc3ccc(NC(=S)Nc4ccccc4)cc3c2=O)cc1 | > 100 µM |
| CCCCCCCCCCCCC(O)c1ccc(C#CCCCCCCCCCO)o1 (configuration not stated) | 43.1 µM |
| Cc1cc2c(C)[nH]nc2c(C(=O)O)c1C | > 100 µM |
| N#CC(NCc1cccc(CNC(C#N)c2ccccc2)c1)c1ccccc1 (configuration not stated) | > 100 µM |

----------
- Test system: UACC-62 melanoma
- TEST NAME: NCI tumour cell line growth inhibition, 48 h
Decide by TGI: equal to or exceeding 8 µM means condition met, less means condition not met.

| COMPOUND | TESTED TARGET | CATEGORY |
| --- | --- | --- |
| CC(C)[C@@H]1C=C2CC[C@H]3[C@](C)(CN)CCC[C@]3(C)[C@H]2CC1 | UACC-62 melanoma | condition met |
| CCC(=C/[C@H](C)C/C=C/C(C)=C/[C@@H](C)C(=O)[C@@H](C)[C@H](O)[C@@H](C)CC)/C=C/[C@H]1OC(=O)C=C[C@@H]1C | UACC-62 melanoma | condition not met |
| C[C@]12CCC3C4=C(CCC3C1CCC2=O)C(=O)[C@H]1O[C@H]1C4=O (stereo partly drawn) | UACC-62 melanoma | condition met |
| COc1ccc2nc3cc(Cl)ccc3c(NCCNCC(C)O)c2c1 (stereo not drawn) | UACC-62 melanoma | condition not met |
| CCN(CC)CCNC(=O)c1cc2cc(NC(=O)c3cc4cc([N+](=O)[O-])ccc4[nH]3)ccc2[nH]1 | UACC-62 melanoma | condition met |
| CC(=O)Oc1cccc2c1C(=O)CCCC2 | UACC-62 melanoma | condition met |
| Cc1cc(-c2nc3ccc(F)cc3s2)ccc1NC(=O)[C@H](C)N | UACC-62 melanoma | condition not met |
| CCC(=O)NCC1CCCN2CCCCC12 (stereo not drawn) | UACC-62 melanoma | condition met |
| CCOP(=O)(OCC)C(F)(F)c1ccc(CC(NC(=O)OC(C)(C)C)C(=O)O)cc1 (stereo not drawn) | UACC-62 melanoma | condition met |
| O=C(Oc1ccc(Cl)cc1)c1ccccc1Nc1ccnc(C(F)(F)F)c1 | UACC-62 melanoma | condition met |
| CC1=C2C(=C[C@@](C)(CO)[C@@H]2O)C(=O)[C@](C)(O)C12CC2 | UACC-62 melanoma | condition not met |
| COC(=O)CC(c1ccccc1)C1(c2ccccc2)SCCS1 (stereo not drawn) | UACC-62 melanoma | condition met |
| O=C1CCCCN1c1ccccc1C#C/C=C\C#Cc1ccccc1C(F)(F)F | UACC-62 melanoma | condition not met |

----------
- Test system: SNB-75 CNS
- TEST NAME: NCI tumour cell line growth inhibition, 48 h

| MOLECULE | TGI |
| --- | --- |
| N=c1nnc2ccc(Cl)cc2n1O | > 100 µM |
| O=[N+]([O-])c1cc(C=NC23CC4CC(CC(C4)C2)C3)ccc1Cl | > 100 µM |
| COc1ccc(C2[C@@H](c3ccccc3)C(=O)N2c2cc(OC)c(OC)c(OC)c2)cc1F (stereo not given in full) | > 100 µM |
| O=C(OCc1ccccc1)N1CCNCCN(C(=O)OCc2ccccc2)CCNCC1 | 85.2 µM |
| N[C@@H]1CCCC[C@@H]1N.O=P([O-])([O-])CN(CCN(CP(=O)([O-])[O-])CP(=O)([O-])[O-])CP(=O)([O-])[O-].[Pt+2] | > 25 µM |
| CCOC(=S)SCC(=O)O | > 100 µM |
| [N-]=[N+]=NC(c1ccccc1)(c1ccccc1)c1ccccc1 | 34.4 µM |
| CC(C)[C@@H]1C=C2CC[C@H]3[C@](C)(CN)CCC[C@]3(C)[C@H]2CC1 | 28.8 µM |
| CC(=O)N1C(C(=O)NC2CCCCC2)CSC1c1ccccc1 (stereo not given) | > 100 µM |
| S=c1sc2c(n1-c1ccccc1)NC=NC2S (stereo not given) | > 100 µM |

----------
- Test system: 786-0 renal
- TEST NAME: NCI tumour cell line growth inhibition, 48 h

| MOLECULE | TGI |
| --- | --- |
| CCCCCCCCCCn1cc[n+](C)c1 | 18.1 µM |
| CCC(=O)NC(Nc1cc(C)on1)(C(F)(F)F)C(F)(F)F | > 100 µM |
| CC1(C)OC1COc1c2occc2cc2ccc(=O)oc12 (stereo not drawn) | > 100 µM |
| CCOC(=O)C1=C(C(=O)OCC)C2c3ccccc3C=CN2C(C(=O)OCC)=C(SC)S1 (stereo not drawn) | > 100 µM |
| COc1cccc(-c2nc(-c3ccc(NC(=O)OC(C)C)cc3)[nH]c2-c2ccnc(Br)c2)c1 | > 100 µM |
| Cc1cc(Nc2ccc(S(=O)(=O)O)c3cc(S(=O)(=O)O)cc(S(=O)(=O)O)c23)c2ccccc2n1 | > 100 µM |
| Cc1ccccc1OC(C)C(=O)NN1C(=O)CSC1c1ccccc1 (stereo not drawn) | > 100 µM |
| CCCCCC[C@@H]1CCC2C(CO)[C@@H](O)CC[C@@H]2C1 (stereo partly drawn) | 33.5 µM |
| O=C1CCC2(c3ccc(Cl)cc3)Nc3ccncc3N12 (stereo not drawn) | > 10 µM |
| N#Cc1c[nH]n2c(N=Nc3ccc(Cl)cc3)c(O)nc12 | > 100 µM |
| COc1nncc2[nH]c(-c3ccccc3)cc12 | > 100 µM |
| CC(=O)CC(OC(C)=O)C1=CCC2C(CC1C)OC(=O)C2C (stereo not drawn) | > 100 µM |
| COc1ccc(CCN=C2NC(=O)/C(=C/c3ccc4ncccc4c3)S2)cc1 | > 25 µM |
| COC(=O)CC(c1ccccc1)C1(c2ccccc2)SCCS1 (stereo not drawn) | > 290 µM |
| NC1(c2cc3ccccc3s2)CCCC1 | > 100 µM |
| Cc1oc2c(cc(O)c3cc(O)ccc32)c2cccc1-2 | > 100 µM |
| COc1cc(S(=O)(=O)Nc2nc(-c3ccc(N4C(=O)C(CC(=O)O)SC4c4cccs4)cc3)cs2)ccc1Cl (stereo not drawn) | > 100 µM |
| CCCCCC1=CC(=O)C1(Cl)Cl | 35.8 µM |
| O=C(/C=C/c1ccccc1)C[C@@H](O)C[C@@H]1CC=CC(=O)O1 | 12 µM |
| C/C(=N/Nc1ccc([N+](=O)[O-])cc1[N+](=O)[O-])C(CC(C(=O)NCc1ccccc1)/C(C)=N\Nc1ccc([N+](=O)[O-])cc1[N+](=O)[O-])C(=O)NCc1ccccc1 (stereo not drawn) | 13.1 µM |
| Cc1ccc(/C=C/C(=O)CCN(C)C)cc1 | 32.6 µM |
| N#CC(Cc1ccccc1)N(CCC1=CCCCC1)C(c1ccccc1)c1ccccc1 (stereo not drawn) | > 100 µM |
| COc1nc(NC2OC(COC(C)=O)C(OC(C)=O)C(OC(C)=O)C2OC(C)=O)c2c(OC(C)=O)cc(=O)oc2n1 (stereo not drawn) | > 100 µM |
| C[C@]12CC[C@H](O)CC1=CC[C@@H]1[C@@H]2CC[C@]2(C)C(=N/N)/C(=N\O)C[C@@H]12 | > 100 µM |
| Nn1c(-c2ccccc2)n[nH]c1=O | > 100 µM |
| C=C1C(=O)O[C@H]2[C@H]1CC/C(COC(=O)NCc1ccc(Cn3c(=O)sn(-c4ccc(OC)cc4)c3=O)cc1)=C\CC[C@@]1(C)O[C@@H]21 | 4.51 µM |
| CN1CC[C@@H](NC(=O)Nc2ccc(C#N)cc2)C[C@@H]1c1nc2ccccc2[nH]1 | > 100 µM |
| COc1cc(C2CC(C)(O)Oc3cc4c(cc32)OCO4)cc(OC)c1OC (stereo not drawn) | > 100 µM |
| C[C@]12CCC3c4ccc(O)cc4CCC3C1CC[C@@]2(O)CNC(=O)/C=C/c1ccc(O)c(O)c1 (stereo partly drawn) | 24.9 µM |
| O=c1[nH]c(=S)[nH]c2c1C(c1ccc([N+](=O)[O-])cc1)c1c([nH]c(=S)[nH]c1=O)O2 | > 100 µM |
| Nc1nc2c(c(-c3cccc(Cl)c3)n1)COC/C2=C\c1cccc(Cl)c1 | > 100 µM |
| O=C(C1OC1c1ccc(Br)cc1O)C12CC3CC(CC(C3)C1)C2 (stereo not drawn) | 32.4 µM |
| N[C@@H]1CCCC[C@@H]1N.O=P([O-])([O-])CN(CCN(CP(=O)([O-])[O-])CP(=O)([O-])[O-])CP(=O)([O-])[O-].[Pt+2] | > 25 µM |
| O=C(/C=C/c1ccc(O)cc1)c1ccc(O)cc1 | > 100 µM |
| c1ccc(NCn2cnc3ccccc32)cc1 | > 100 µM |
| Oc1ccc(Cc2cc(Cc3ccc(O)cc3)cc(Cc3ccc(O)cc3)c2)cc1 | > 50 µM |
| O=C(CCCSc1nc(-c2ccccc2)cc(-c2ccccc2)n1)NO | 4.34 µM |
| CC1=Nc2ccccc2OC(C)=C1N=Nc1ccc2nc(C)[nH]c2c1 | > 100 µM |
